Exercise: state measured kon for each of the binders provided.
# measurement_target: T1, mouse vascular endothelial growth factor receptor-2 Fc chimera (Flk-1-Fc) (mouse, UniProt P35918 20-762)
# T1 construct: bought from R&D Systems; also called mouse VEGF-R2-Fc; Fc part of the bought chimera not given, not described
# T1 sequence (P35918 20-762, change not shown): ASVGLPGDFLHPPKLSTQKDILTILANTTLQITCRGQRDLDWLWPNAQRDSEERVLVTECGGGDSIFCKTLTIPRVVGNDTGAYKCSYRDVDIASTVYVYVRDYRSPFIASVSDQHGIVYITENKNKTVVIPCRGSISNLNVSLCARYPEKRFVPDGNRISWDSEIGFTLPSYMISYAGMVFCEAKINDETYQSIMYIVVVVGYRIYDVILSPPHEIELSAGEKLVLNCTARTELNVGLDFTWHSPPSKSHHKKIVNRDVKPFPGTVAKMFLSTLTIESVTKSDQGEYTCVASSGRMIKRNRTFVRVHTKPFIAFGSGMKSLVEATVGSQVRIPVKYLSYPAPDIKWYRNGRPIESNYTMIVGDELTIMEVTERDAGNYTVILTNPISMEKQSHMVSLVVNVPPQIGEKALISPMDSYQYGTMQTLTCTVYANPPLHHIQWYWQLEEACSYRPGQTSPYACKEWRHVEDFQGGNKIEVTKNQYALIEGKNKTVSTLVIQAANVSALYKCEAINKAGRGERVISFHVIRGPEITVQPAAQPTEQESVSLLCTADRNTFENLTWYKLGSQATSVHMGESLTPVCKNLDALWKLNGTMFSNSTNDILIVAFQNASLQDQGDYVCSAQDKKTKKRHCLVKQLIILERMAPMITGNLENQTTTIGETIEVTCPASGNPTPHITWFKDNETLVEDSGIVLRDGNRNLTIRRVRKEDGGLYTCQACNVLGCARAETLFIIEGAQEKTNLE
# measurement_notes: BIAcore, Flk-1-Fc immobilised on CM5 chip

Field: example entries. Status: answers known.
M5FL, E. coli-expressed, His6 (designed binder, soluble E. coli form with Ser100) VSDVPRDLEVVAATPTSLLISWRHPHFPTRYYRITYGETGGNSPVQEFTVPLQPPLATISGLKPGVDYTITVYAVTKERNGRELFTPISINYRTEIDKPSQHHHHHH :: 280000 M⁻¹ s⁻¹
E6, E. coli-expressed, His6 (designed binder, soluble E. coli form; N-terminal residues added for expression not described) EVVAATPTSLLISWRHPHFPTRYYRITYGETGGNSPVQEFTVPLQPPTATISGLKPGVDYTITGYAVTDGWNGRLLSIPISINYRTEIDKPSQHHHHHH :: 670000 M⁻¹ s⁻¹
E18, E. coli-expressed, His6 (designed binder, soluble E. coli form; N-terminal residues added for expression not described) EVVAATPTSLLISWRHPHFPTRYYRITYGETGGNSPVQEFTVPLQPPTATISGLKPGVDYTITGYAVTVERNGRELNTPISINYRTEIDKPSQHHHHHH :: 600000 M⁻¹ s⁻¹
E29, E. coli-expressed, His6 (designed binder, soluble E. coli form; N-terminal residues added for expression not described) EVVAATPTSLLISWRHPHFPTRYYRITYGETGGNSPVQEFTVPLQPPTATISGLKPGVDYTITGYAVTVERNGRVLMTPISINYRTEIDKPSQHHHHHH :: 790000 M⁻¹ s⁻¹

Consider now this further binder.
Check the records and state kon for E19, E. coli-expressed, His6 (designed binder, soluble E. coli form; N-terminal residues added for expression not described) EVVAATPTSLLISWRHPHFPTRYYRITYGETGGNSPVQEFTVPLQPPTATISGLKPGVDYTITGYAVTVERNGRHLMTPISINYRTEIDKPSQHHHHHH 660000 M⁻¹ s⁻¹

Value source: patent US20100310549A1
